# System: CEM cells HIV-1 protection, formazan growth assay
# TEST_METHOD_NOTES: NCI AIDS Antiviral Assay
# TEST_CONTEXT: measured here: growth of uninfected CEM cells
REPORTED_PROPERTY: log10 of IC50 (log10 of the value in µM)
Units before log transform: µM; reported quantity: IC50; transform: log10.

// below: answered compounds
{"COMPOUND": "COc1c(O)cc2oc(-c3ccc(O)c(O)c3)cc(=O)c2c1O", "TEST_SYSTEM": "CEM cells HIV-1 protection, formazan growth assay", "log10 of IC50": 1.36}
{"COMPOUND": "Cc1ccsc1/C=N/Nc1cnccn1", "TEST_SYSTEM": "CEM cells HIV-1 protection, formazan growth assay", "log10 of IC50": 1.88}
{"COMPOUND": "O=c1c(SCc2ccccc2)c(N2CCOCC2)cnn1-c1ccccc1", "TEST_SYSTEM": "CEM cells HIV-1 protection, formazan growth assay", "log10 of IC50": 2.76}
{"COMPOUND": "C[C@]12CC[C@H](O)C[C@@H]1CC[C@@H]1[C@@H]2CC[C@]2(C)c3nc4ccccc4cc3C[C@@H]12", "TEST_SYSTEM": "CEM cells HIV-1 protection, formazan growth assay", "log10 of IC50": 0.91}

Then there is this compound:
QUERY: log10 of IC50 lookup needed for Cc1ccccc1C1OC(=O)c2ccccc21 (stereo unspecified) , thanks.
RESULT: 1.99

* * *

# System: CEM cells HIV-1 protection, formazan growth assay
# TEST_METHOD_NOTES: NCI AIDS Antiviral Assay
# TEST_CONTEXT: measured here: growth of uninfected CEM cells
REPORTED_PROPERTY: IC50 (µM)
Answers are plain numbers, in µM.

Some compounds with known IC50 results, for comparison:
{"COMPOUND": "COc1cc2c(c(O)c1O)C(=O)C1CCC(=O)N1C2c1cccc2ccccc12 (stereo not given)", "TEST_SYSTEM": "CEM cells HIV-1 protection, formazan growth assay", "RESULT_UNIT": "µM", "RECORDED_VALUE": 35.5}
{"COMPOUND": "COC1/C=C\\OC2(C)Oc3c(C)c(O)c4c(O)c(c(/C=N\\OCCO)c(O)c4c3C2=O)NC(=O)/C(C)=C\\C=C/C(C)C(O)C(C)C(O)C(C)C(OC(C)=O)C1C (stereo not given)", "TEST_SYSTEM": "CEM cells HIV-1 protection, formazan growth assay", "RESULT_UNIT": "µM", "RECORDED_VALUE": 126}
{"COMPOUND": "COCCOCC(=O)N(CCn1ccc(NC(c2ccccc2)(c2ccccc2)c2ccccc2)nc1=O)CCn1cnc2nc(N)[nH]c(=O)c21", "TEST_SYSTEM": "CEM cells HIV-1 protection, formazan growth assay", "RESULT_UNIT": "µM", "RECORDED_VALUE": 60.3}
{"COMPOUND": "c1ccc([P+](CCNCCNCC[P+](c2ccccc2)(c2ccccc2)c2ccccc2)(c2ccccc2)c2ccccc2)cc1", "TEST_SYSTEM": "CEM cells HIV-1 protection, formazan growth assay", "RESULT_UNIT": "µM", "RECORDED_VALUE": 234}
{"COMPOUND": "O=C(NN1C(=O)C(Cl)C1c1ccc(O)cc1)c1ccccc1O (stereo not given)", "TEST_SYSTEM": "CEM cells HIV-1 protection, formazan growth assay", "RESULT_UNIT": "µM", "RECORDED_VALUE": 10.2}
{"COMPOUND": "CC(=O)NCCC1CN(C(=O)/C=C\\C#C[Si](C)(C)C)c2ccccc21 (stereo not given)", "TEST_SYSTEM": "CEM cells HIV-1 protection, formazan growth assay", "RESULT_UNIT": "µM", "RECORDED_VALUE": 19.5}
{"COMPOUND": "Cc1ccc(/C(O)=C/C(=O)C(=O)NN=C(c2ccccc2)c2ccccc2)cc1", "TEST_SYSTEM": "CEM cells HIV-1 protection, formazan growth assay", "RESULT_UNIT": "µM", "RECORDED_VALUE": 107}
{"COMPOUND": "CO/C(=N\\N=C\\c1cccc(C(F)(F)F)c1)c1ccncc1", "TEST_SYSTEM": "CEM cells HIV-1 protection, formazan growth assay", "RESULT_UNIT": "µM", "RECORDED_VALUE": 12.6}

Take each entry in turn and give its IC50.
1. Cn1c2ccccc2n2c3ccccc3c3nnc(N)c-3c12
2. c1ccc(-c2cc(-c3cccs3)c(-c3cccs3)s2)cc1

RESULT:
1: 28.2; 2: 36.3
